# Target: AChE in SH-SY5Y cells (Homo sapiens)
# Sequence (P22303 32-614): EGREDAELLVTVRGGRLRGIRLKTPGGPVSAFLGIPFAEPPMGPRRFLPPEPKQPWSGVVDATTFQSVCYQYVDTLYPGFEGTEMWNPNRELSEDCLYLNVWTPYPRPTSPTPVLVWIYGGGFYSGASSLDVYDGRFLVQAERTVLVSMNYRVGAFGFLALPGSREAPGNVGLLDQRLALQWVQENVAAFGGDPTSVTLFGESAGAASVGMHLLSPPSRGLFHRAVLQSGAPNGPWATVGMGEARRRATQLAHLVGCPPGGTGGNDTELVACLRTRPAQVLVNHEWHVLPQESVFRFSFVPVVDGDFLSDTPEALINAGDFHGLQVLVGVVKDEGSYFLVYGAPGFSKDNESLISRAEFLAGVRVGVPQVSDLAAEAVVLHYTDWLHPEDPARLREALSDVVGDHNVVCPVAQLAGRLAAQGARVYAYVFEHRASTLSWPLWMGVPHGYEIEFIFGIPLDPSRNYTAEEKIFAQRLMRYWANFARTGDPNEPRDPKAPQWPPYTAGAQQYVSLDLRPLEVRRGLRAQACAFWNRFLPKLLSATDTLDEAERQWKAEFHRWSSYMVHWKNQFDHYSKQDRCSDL
# Measurement Description: cell-based
Measured Attribute: CC-v2 (curve classes)
Just the number, please, no unit after it.

Cc1nc2n(c(=O)c1CCN1CCC(C(=O)c3ccc(F)cc3)CC1)CCS2 [Setoperone, reference compound] = -2.1
CNP(=O)(OC)Oc1ccc(C(C)(C)C)cc1Cl (stereo not shown) [Crufomate] = -2.1
O=c1[nH]c2ccc([S+]([O-])CCN3CCC(Cc4ccc(F)cc4)CC3)cc2o1 (stereo not shown) [Besonprodil, reference compound] = -1.1

Note: attention shifts to another entry.
Given the compound CCOC(=O)c1cn2nc(OP(=S)(OCC)OCC)cc2nc1C [Pyrazophos] , write its reported CC-v2 (curve classes).
-2.1

###

# Target: recombinant human AChE (Homo sapiens)
# Sequence (P22303 32-614): as above
# Measurement Description: biochemical
Counter-ions that a name gives are not always drawn.
Note to self: class = bucket of Efficacy, per low interval: < -80; middle interval: ≥ -80 and < -50; high interval: ≥ -50

Example entries begin here.
CS/C(C)=N\OC(=O)N(C)SN(C)C(=O)O/N=C(\C)SC = low interval
Nc1c(/N=N/c2ccc(-c3ccc(/N=N/c4cc(S(=O)(=O)O)c5ccccc5c4N)cc3)cc2)cc(S(=O)(=O)O)c2ccccc12 = high interval
CCOP(=S)(OCC)SCSP(=S)(OCC)OCC = low interval
CC(=O)Oc1cc(C(C)C)c(OCCN(C)C)cc1C [Moxisylyte hydrochloride, reference compound] = middle interval
CCOC(=O)c1ccc(NC(=O)CN2CCCCC2)cc1 [Sulcaine, reference compound] = high interval

Sort CN1CCc2cc(Cl)c(O)cc2[C@H]2c3ccccc3CC[C@@H]21 [Ecopipam, reference compound] into one of the categories.
middle interval

Sort Nc1c2c(nc3ccccc13)CCCC2O.O=C(O)/C=C\C(=O)O (stereo not drawn) [Hydroxytacrine maleate, reference compound] into one of the categories.
low interval

Sort CCCCC(CC)CNC(=N)NC(=N)NCCCCCCNC(=N)NC(=N)NCC(CC)CCCC (stereo not drawn) [Alexidine dihydrochloride] into one of the categories.
low interval

Sort CCOP(=S)(OCC)SCSc1ccc(Cl)cc1 into one of the categories.
high interval

Sort O=C(O)CC[N+](=O)[O-] into one of the categories.
low interval

Sort CCOP(=O)(OCC)OC(=CCl)c1ccc(Cl)cc1Cl into one of the categories.
low interval

Sort Cc1nc2n(c(=O)c1CCN1CCC(C(=O)c3ccc(F)cc3)CC1)CCS2 [Setoperone, reference compound] into one of the categories.
middle interval

Sort CN1CCCC(n2nc(Cc3ccc(Cl)cc3)c3ccccc3c2=O)CC1 (stereo not drawn) [Azelastine hydrochloride] into one of the categories.
middle interval

Sort O=c1[nH]c2ccc([S+]([O-])CCN3CCC(Cc4ccc(F)cc4)CC3)cc2o1 (stereo not drawn) [Besonprodil, reference compound] into one of the categories.
low interval

Sort CNC(=O)Oc1ccc(N(C)C)c(C)c1 into one of the categories.
low interval

Sort COc1ccc(C(=O)NCc2ccc(OCCN(C)C)cc2)cc1OC.Cl [Itopride hydrochloride, reference compound] into one of the categories.
middle interval

Sort CNC(=O)Oc1cc(C)cc(C(C)C)c1 into one of the categories.
low interval

Sort CCOC(=O)c1cn2nc(OP(=S)(OCC)OCC)cc2nc1C into one of the categories.
high interval

Sort COc1nn(CSP(=S)(OC)OC)c(=O)s1 into one of the categories.
high interval

Sort CCOC(=O)C(SP(=S)(OC)OC)c1ccccc1 (stereo not drawn) [Phenthoate] into one of the categories.
middle interval

Sort Cc1nccn1CC1CCc2c(c3ccccc3n2C)C1=O (stereo not drawn) into one of the categories.
high interval

Sort CCOC(=O)COc1ccc2c(C)c(CCN(CC)CC)c(=O)oc2c1Cl.Cl [Cloricromen hydrochloride] into one of the categories.
middle interval

Sort CN1CCCN=C1/C=C/c1cccs1.O=C(O)C(O)C(O)C(=O)O [Pyrantel tartrate] into one of the categories.
high interval

Sort COP(=O)(OC)Oc1ccc([N+](=O)[O-])cc1 into one of the categories.
low interval
